system: Staphylococcus aureus; experiment: Antibacterial activity against methicillin-resistant Staphylococcus aureus ATCC 43300 assessed as reduction in bacterial growth; format: functional
measure: MIC (µg/mL)

[
  {
    "molecule": "C[C@H](Cc1c[nH]c2ccc(CNc3ccc(C(F)(F)F)cc3)cc12)[C@H]1CC[C@H]2[C@@H]3CC[C@@H]4C[C@H](O)CC[C@]4(C)[C@H]3CC[C@]12C",
    "measure": "MIC",
    "measurement.units": "µg/mL",
    "data.value": 32
  },
  {
    "molecule": "CNCc1ccc2[nH]cc(C[C@@H](C)[C@H]3CC[C@H]4[C@@H]5CC[C@@H]6C[C@H](O)CC[C@]6(C)[C@H]5CC[C@]34C)c2c1",
    "measure": "MIC",
    "measurement.units": "µg/mL",
    "data.value": 2
  },
  {
    "molecule": "C[C@H](Cc1c[nH]c2ccc(CN3CCNCC3)cc12)[C@H]1CC[C@H]2[C@@H]3CC[C@@H]4C[C@H](O)CC[C@]4(C)[C@H]3CC[C@]12C",
    "measure": "MIC",
    "measurement.units": "µg/mL",
    "data.value": 16
  },
  {
    "molecule": "CCNCc1ccc2[nH]cc([C@H]3CC[C@H]4[C@@H]5CCc6cc(O)ccc6[C@H]5CC[C@]34C)c2c1",
    "measure": "MIC",
    "measurement.units": "µg/mL",
    "data.value": 1
  },
  {
    "molecule": "COc1ccc2[nH]cc(C[C@@H](C)[C@H]3CC[C@H]4[C@@H]5CC[C@@H]6C[C@H](O)CC[C@]6(C)[C@H]5CC[C@]34C)c2c1",
    "measure": "MIC",
    "measurement.units": "µg/mL",
    "data.value": 32
  },
  {
    "molecule": "COc1ccc2[nH]cc([C@H]3CC[C@H]4[C@@H]5CC[C@H]6C[C@@H](O)CC[C@]6(C)[C@H]5CC[C@]34C)c2c1",
    "measure": "MIC",
    "measurement.units": "µg/mL",
    "data.value": 16
  },
  {
    "molecule": "C[C@H](Cc1c[nH]c2ccc(CNCCN3CCN(C)CC3)cc12)[C@H]1CC[C@H]2[C@@H]3CC[C@@H]4C[C@H](O)CC[C@]4(C)[C@H]3CC[C@]12C",
    "measure": "MIC",
    "measurement.units": "µg/mL",
    "data.value": 2
  },
  {
    "molecule": "C[C@H](Cc1c[nH]c2ccc(CN3CCC(O)C3)cc12)[C@H]1CC[C@H]2[C@@H]3CC[C@@H]4C[C@H](O)CC[C@]4(C)[C@H]3CC[C@]12C (some centres undefined)",
    "measure": "MIC",
    "measurement.units": "µg/mL",
    "data.value": 16
  },
  {
    "molecule": "CCCNCc1ccc2[nH]cc(C[C@@H](C)[C@H]3CC[C@H]4[C@@H]5CC[C@@H]6C[C@H](O)CC[C@]6(C)[C@H]5CC[C@]34C)c2c1",
    "measure": "MIC",
    "measurement.units": "µg/mL",
    "data.value": 32
  }
]
